# pEC50 listing for each entry below
Test system: HCV replicon in Huh7 cells
Experiment notes: HCV replicon cell-based assay
Set-up: species or system HCV strain 1B
Reported conditions: Hepatitis C virus, Huh-7; HCV replicon, Huh7 cells; read-out: EC50 range
pEC50: −log10 of the molar value.

Consider the reported pEC50 for these compounds:
C=CC1C[C@]1(NC(=O)[C@@H]1C[C@@H](Oc2noc3ccccc23)CN1C(=O)[C@@H](NC(=O)OC(C)(C)C)C(C)(C)C)C(=O)NS(=O)(=O)C1CC1 (stereo partly shown) [Compound 334]	6.00 to 7.00
C=CC1C[C@]1(NC(=O)[C@@H]1C[C@@H](Oc2cc(C(F)(F)F)nc3c(C(F)(F)F)cccc23)CN1C(=O)[C@@H](NC(=O)OC(C)(C)C)C(C)(C)C)C(=O)NS(=O)(=O)C1CC1 (stereo partly shown) [Compound 181]	6.00 to 7.00
C=C[C@@H]1C[C@]1(NC(=O)[C@@H]1C[C@@H](Oc2nc(-c3ccc(C#N)cc3)cc3ccccc23)CN1C(=O)[C@@H](NC(=O)OC(C)(C)C)C(C)(C)C)C(=O)NS(=O)(=O)C1CC1 [Compound 29]	> 7.00
C=C[C@@H]1C[C@]1(NC(=O)[C@@H]1C[C@@H](Oc2nccc3cc(O)ccc23)CN1C(=O)[C@@H](NC(=O)OC(C)(C)C)C(C)(C)C)C(=O)NS(=O)(=O)C1CC1 [Compound 280]	> 7.00
C=C[C@@H]1C[C@]1(NC(=O)[C@@H]1C[C@@H](Oc2cc(-c3ccc(OC)cc3)nc3c(C)noc23)CN1C(=O)[C@@H](NC(=O)OC(C)(C)C)C(C)(C)C)C(=O)NS(=O)(=O)C1CC1 [Compound 3]	> 7.00
C=C[C@@H]1C[C@]1(NC(=O)[C@@H]1C[C@@H](Oc2nc(C3CC3)cc3ccccc23)CN1C(=O)[C@@H](NC(=O)OC(C)(C)C)C(C)(C)C)C(=O)NS(=O)(=O)C1CC1 [Compound 34]	6.00 to 7.00
C=C[C@@H]1C[C@]1(NC(=O)[C@@H]1C[C@@H](Oc2nccc3c(F)c(OC)ccc23)CN1C(=O)[C@@H](NC(=O)OC(C)(C)C)C(C)(C)C)C(=O)NS(=O)(=O)C1CC1 [Compound 274]	6.00 to 7.00
C=C[C@@H]1C[C@]1(NC(=O)[C@@H]1C[C@@H](Oc2nccc3ccccc23)CN1C(=O)[C@@H](NC(=O)OCCF)C(C)(C)C)C(=O)NS(=O)(=O)C1CC1 [Compound 126]	6.00 to 7.00
C=CC1CC1(NC(=O)C1CC(Oc2nccc3c(OC(F)F)cccc23)CN1C(=O)C(NC(=O)OC(C)(C)C)C(C)(C)C)C(=O)NS(=O)(=O)C1CC1 (stereo not shown) [Compound 285]	> 7.00

Give the reported value of pEC50 for this record: C=C[C@@H]1C[C@]1(NC(=O)[C@@H]1C[C@@H](Oc2nccc3cc(OC)ccc23)CN1C(=O)[C@@H](NC(=O)OC1(C)CCCC1)C(C)(C)C)C(=O)NS(=O)(=O)C1CCC1 [Compound 384] > 7.00
